Numbers sourced from PubChem BioAssay (NCI).

Property: growth inhibition; scope: individual compounds
- TEST_DESCRIPTION: NCI Yeast Anticancer Drug Screen. Data for the bub3 strain (AID 167)
- MEASUREMENT_CONTEXT: S. cerevisiae bub3 mutant strain, at 50.0 µM, hits give high values
About 79,000 compounds went through this panel and 15% of them were active in at least one assay; those are over-represented in the sample as a whole.
I only need the number, in %, no unit after it.

Solved cases below.
[in] Look up growth inhibition for this compound: Cc1cc(Cc2cc(C)c(O)c(CN(C)C)c2)cc(CN(C)C)c1O
[out] -6.1

[in] Look up growth inhibition for this compound: COC(=O)c1nnn(-c2cccc(Cl)c2)c1N
[out] -26.9

[in] Look up growth inhibition for this compound: Cc1ccccc1/C=C1/N=C(c2ccccc2)OC1=O
[out] -14.4

Continuing:
[in] Look up growth inhibition for this compound: Cc1nn(C(=O)c2ccc(Cl)cc2)c2c1C(c1ccccc1)SC(N)=N2 (stereo unspecified)
[out] 18.4

[in] Look up growth inhibition for this compound: CC(O)C(O)C(O)C(O)C(/C=N/Nc1ccccc1)=N/Nc1ccccc1 (stereo unspecified)
[out] 0.25

[in] Look up growth inhibition for this compound: FC(F)(F)c1cccc(NC(=S)Nc2ccccc2S)c1
[out] 9.95
